Below, each of the compounds is paired with its reported pIC50 value.
- TARGET_OR_SYSTEM: UniProtKB P41968
- TEST_PROTOCOL: cAMP accumulation assay (HTRF), antagonist activity at MC3R
- REPORTED_CONDITIONS: HEK293/CRE-luc/MC3R; estimated from dose-response curve
pIC50: −log10 of the molar value. Positions of bridges follow the written chain, without caps; N, C: chain ends. Non-standard residues stand in square brackets, D forms with d. Residues, ends and D or L forms follow the SMILES beside them. d2Nal = N[C@H](Cc1ccc2ccccc2c1)C(=O)O; Hyp = O=C(O)[C@@H]1C[C@@H](O)CN1; Nle = CCCC[C@H](N)C(=O)O

CCCC[C@H](NC(C)=O)C(=O)N[C@H]1CC(=O)NCCCC[C@@H](C(=O)N2CCC[C@@H]2C(=O)N[C@@H](C(N)=O)C(C)C)NC(=O)[C@H](Cc2c[nH]c3ccccc23)NC(=O)[C@H](CCCNC(=N)N)NC(=O)[C@@H](Cc2ccc3ccccc3c2)NC(=O)[C@H](Cc2c[nH]cn2)NC(=O)[C@@H]2CCCN2C1=O [Peptide D5] (Ac-[Nle]DPH[d2Nal]RWK[dP][dV]-NH2; lactam 2-8) : < 5.00
CCCC[C@H](NC(C)=O)C(=O)N[C@H]1CC(=O)NCCCC[C@@H](C(=O)N[C@@H](C(=O)N2CCC[C@@H]2C(N)=O)C(C)C)NC(=O)[C@@H]2CCCN2C(=O)[C@H](Cc2c[nH]c3ccccc23)NC(=O)[C@H](CCCNC(=N)N)NC(=O)[C@@H](Cc2ccc3ccccc3c2)NC(=O)[C@@H]2C[C@@H](O)CN2C1=O [Peptide D4] (Ac-[Nle]D[Hyp][d2Nal]RWPK[dV][dP]-NH2; lactam 2-8) : < 5.00

# context switch: different compound, same pIC50
Req: Need pIC50, item CCCC[C@H](NC(C)=O)C(=O)N[C@@H](CC(=O)O)C(=O)N1CCC[C@H]1C(=O)N[C@H](Cc1ccc2ccccc2c1)C(=O)N[C@@H](CCCNC(=N)N)C(=O)N[C@@H](Cc1c[nH]c2ccccc12)C(=O)N[C@@H](CCCCN)C(=O)N[C@@H](C(=O)N1CCC[C@@H]1C(N)=O)C(C)C [Peptide A1] (Ac-[Nle]DP[d2Nal]RWK[dV][dP]-NH2)
Resp: > 5.00

* * *

- TARGET_OR_SYSTEM: human MC3R (Homo sapiens, UniProt P41968)
- Construct: expressed in transfected cells; host or cells: HEK293/CRE-luc/MC3R
- Sequence (P41968 whole entry): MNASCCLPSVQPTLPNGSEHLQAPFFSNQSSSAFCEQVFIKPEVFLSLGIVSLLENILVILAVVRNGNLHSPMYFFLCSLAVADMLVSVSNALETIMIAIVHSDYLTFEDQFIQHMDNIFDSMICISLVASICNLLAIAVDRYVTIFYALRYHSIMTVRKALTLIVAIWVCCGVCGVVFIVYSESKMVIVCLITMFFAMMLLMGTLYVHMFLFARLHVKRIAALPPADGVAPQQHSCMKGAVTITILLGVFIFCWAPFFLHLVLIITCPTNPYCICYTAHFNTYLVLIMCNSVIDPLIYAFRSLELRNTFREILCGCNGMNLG
- TEST_PROTOCOL: cAMP accumulation assay (HTRF), antagonist activity at MC3R
- Format: cell-based
- REPORTED_CONDITIONS: dose-response fit, MC3R
Non-standard residues stand in square brackets, D forms with d. No end group written: not given here. d2Nal = N[C@H](Cc1ccc2ccccc2c1)C(=O)O; Nle = CCCC[C@H](N)C(=O)O
MEASURE: Hill Coefficient

Worked examples follow.
Ac-Nle-Pro-Dnal(2′)-Arg-Trp-Dval-Dpro-NH2 (Ac-[Nle]P[d2Nal]RW[dV][dP]-NH2; SMILES CCCC[C@H](NC(C)=O)C(=O)N1CCC[C@H]1C(=O)N[C@H](Cc1ccc2ccccc2c1)C(=O)N[C@@H](CCCNC(=N)N)C(=O)N[C@@H](Cc1c[nH]c2ccccc12)C(=O)N[C@@H](C(=O)N1CCC[C@@H]1C(N)=O)C(C)C) [Peptide A2] : 0.82
IDPFFRWKVP [Peptide B8] : 12.04

a. IDPWRWKVP [Peptide C8]
b. VPFFRWVP [Peptide B6]
c. LPWRWVP [Peptide C4]
Req: Order the records, beginning with the lowest Hill Coefficient and ending with the highest. Dear reader, please state the labels in the requested order.
Resp: a, c, b
